measuredTarget: GSK-3β (Homo sapiens)
Sequence (P49841 whole entry): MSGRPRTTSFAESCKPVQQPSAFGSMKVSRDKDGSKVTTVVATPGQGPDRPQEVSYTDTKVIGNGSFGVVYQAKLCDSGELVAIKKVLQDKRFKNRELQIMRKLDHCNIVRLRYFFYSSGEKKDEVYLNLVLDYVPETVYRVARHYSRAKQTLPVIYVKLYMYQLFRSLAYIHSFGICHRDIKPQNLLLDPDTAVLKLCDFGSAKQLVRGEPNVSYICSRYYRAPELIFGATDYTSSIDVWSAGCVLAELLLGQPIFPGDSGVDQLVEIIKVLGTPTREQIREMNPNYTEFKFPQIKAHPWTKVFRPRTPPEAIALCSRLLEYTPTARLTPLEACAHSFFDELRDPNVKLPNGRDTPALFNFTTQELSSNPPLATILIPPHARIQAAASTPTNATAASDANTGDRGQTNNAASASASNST
method: in vitro GSK-3β inhibition assay
Format: biochemical
details: IMID 1 and IMID 2 derivatives 7–18; average of duplicate wells
The label is y for IC50 below 300 nM and n for IC50 equal to or exceeding 300 nM.

O=C(NCC1CCOCC1)c1ncn2ccc(-c3cccc(F)c3F)cc12 [Compound 12]    y
O=C(NCC1CCOCC1)c1ncc2ccc(-c3cnccc3CO)cn12 [Compound 17]    n
O=C(NCC1CCOCC1)c1ncc2ccc(-c3cccc(F)c3F)cn12 [Compound 18]    y

Is IC50 strictly under 300 nM for the entry COCCN1CCC(CNC(=O)c2ncc3ccc(-c4cncc(OC(C)C)c4)cn23)CC1 [Compound 14] ?
y

Is IC50 strictly under 300 nM for the entry COCCN1CCC(CNC(=O)c2ncn3ccc(-c4cncc(OC(C)C)c4)cc23)CC1 [Compound 8] ?
y

Is IC50 strictly under 300 nM for the entry O=C(NCC1CCOCC1)c1ncc2ccc(-c3cccnc3)cn12 [Compound 15] ?
y

Is IC50 strictly under 300 nM for the entry COCCN1CCC(CNC(=O)c2ncc3ccc(-c4cccnc4)cn23)CC1 [Compound 13] ?
n

====

measuredTarget: UniProt:P49841
method: in vitro GSK-3β inhibition assay
Format: biochemical
details: IMID 1 and IMID 2 derivatives 7–18; average of duplicate wells
measurementLabel: pIC50
Notebook: values listed as pIC50 are -log10 of the concentration (mol/L).

Observe how each entry below is paired with its result.
O=C(NCC1CCOCC1)c1ncn2ccc(-c3cnccc3CO)cc12    5.85
O=C(NCC1CCOCC1)c1ncn2ccc(-c3cccnc3)cc12    6.74

// recorded pIC50 for `CC(C)Oc1cncc(-c2ccc3cnc(C(=O)NCC4CCOCC4)n3c2)c1` : 7.14

// recorded pIC50 for `COCCN1CCC(CNC(=O)c2ncn3ccc(-c4cccnc4)cc23)CC1` : 6.39

// recorded pIC50 for `CC(C)Oc1cncc(-c2ccn3cnc(C(=O)NCC4CCOCC4)c3c2)c1` : 6.70

Origin of the recorded values: paper PMC7248956
